Cited source for all entries: patent US10457685B2

# study.system: human CB2 receptor (CNR2) (Homo sapiens (Human))
pKi: −log10 of the molar value.
Threshold rule: pKi greater than or equal to 7 is label 1; below that, label 0.

See these solved cases before continuing.
compound: Cc1nonc1Cn1nnc2c(N3CCC(N=C=S)C3)nc(C(F)(F)c3ccccc3)nc21 (centres unmarked)
study.system: human CB2 receptor (CNR2) (Homo sapiens (Human))
group: label 0
//
compound: CC(C)(C)c1nc(N2CCC(F)(F)C2)c2nnn(Cc3ccccc3CCSSCC(O)CO)c2n1 (centres unmarked)
study.system: human CB2 receptor (CNR2) (Homo sapiens (Human))
group: label 1
//
compound: CC(C)(C)c1nc(N2CC[C@H](O)C2)c2nnn(Cc3ccccc3S(=O)(=O)F)c2n1
study.system: human CB2 receptor (CNR2) (Homo sapiens (Human))
group: label 1
//
compound: CSSC1CCN(c2nc(C(F)(F)c3ccccc3)nc3c2nnn3Cc2nonc2C)C1 (centres unmarked)
study.system: human CB2 receptor (CNR2) (Homo sapiens (Human))
group: label 0
//
compound: CC(C)(C)c1nc(N2CCC(F)(F)C2)c2nnn(Cc3ccccc3CCS(=O)(=O)F)c2n1
study.system: human CB2 receptor (CNR2) (Homo sapiens (Human))
group: label 1

Now look at this entry.
Given the entry Cc1nonc1Cn1nnc2c(N3CCC(N=[N+]=[N-])C3)nc(C(F)(F)c3ccccc3)nc21 (centres unmarked) , answer whether its pKi meets or surpasses 7.
label 0

====

# study.system: human CB2 receptor (CNR2) (Homo sapiens (Human), UniProt P34972)
# Sequence (P34972 whole entry): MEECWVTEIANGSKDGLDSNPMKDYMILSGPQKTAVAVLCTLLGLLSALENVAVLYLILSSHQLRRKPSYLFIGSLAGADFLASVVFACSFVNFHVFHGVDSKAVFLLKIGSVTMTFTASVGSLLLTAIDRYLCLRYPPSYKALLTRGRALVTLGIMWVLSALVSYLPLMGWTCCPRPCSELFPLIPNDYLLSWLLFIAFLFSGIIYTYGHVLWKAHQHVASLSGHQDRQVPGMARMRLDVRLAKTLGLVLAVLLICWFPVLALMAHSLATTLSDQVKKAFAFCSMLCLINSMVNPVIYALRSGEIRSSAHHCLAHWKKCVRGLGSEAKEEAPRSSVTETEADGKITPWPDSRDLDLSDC
# Ki values compiled below
Report only the number, with the unit nM understood.

Some compounds with recorded Ki:
compound: CC(C)(C)c1nc(N2CCC(F)(F)C2)c2nnn(Cc3ccccc3CCSSc3ccccn3)c2n1
scale.unit: nM
observed.result: 72
--
compound: CC(C)(C)c1nc(N2CCC(F)(F)C2)c2nnn(Cc3ccccc3CN=C=S)c2n1
scale.unit: nM
observed.result: 88

What value of Ki has been reported for the following compound? CC(C)(C)c1nc(N2CCC(S)C2)c2nnn(Cc3ccccc3Cl)c2n1 (centres unmarked)
85

What value of Ki has been reported for the following compound? CC(C)(C)c1nc(N2CCC(F)(F)C2)c2nnn(Cc3ccccc3SSCCO)c2n1
95

What value of Ki has been reported for the following compound? CC(C)(C)c1nc(N2CC[C@H](O)C2)c2nnn(Cc3ccccc3CN=C=S)c2n1
91

What value of Ki has been reported for the following compound? Cc1nonc1Cn1nnc2c(N3CCC(N=[N+]=[N-])C3)nc(C(C)(C)C)nc21 (centres unmarked)
137

What value of Ki has been reported for the following compound? Cc1nonc1Cn1nnc2c(N3CC[C@H](S)C3)nc(C(C)(C)C)nc21 (single isomer, unassigned)
153

What value of Ki has been reported for the following compound? CC(C)(C)c1nc(N2CCC(F)(F)C2)c2nnn(Cc3ccccc3CCSSCCN)c2n1
63
